System: A549
assay comment: Cytotoxicity against human A549 NSCLC cell line
Type: functional, cell-based
endpoint name: IC50

Solved entries (count: 7):
COc1ccc(OC)c([C@@H]2C[C@H]3[C@@H]4CC=C5C[C@@H](O[C@H]6O[C@H](CO)[C@@H](O[C@@H]7O[C@H](CO)[C@H](O)[C@H](O)[C@H]7O)[C@H](O)[C@H]6O)CC[C@]5(C)[C@H]4CC[C@]3(C)[C@H]2C(C)=O)c1 : > 10 µM
COc1ccc(OC)c([C@@H]2C[C@H]3[C@@H]4CC=C5C[C@@H](O[C@H]6O[C@@H](C)[C@@H](O)[C@@H](O)[C@@H]6O)CC[C@]5(C)[C@H]4CC[C@]3(C)[C@H]2C(C)=O)c1 : > 10 µM
COc1ccc(OC)c([C@@H]2C[C@H]3[C@@H]4CC=C5C[C@@H](O[C@@H]6O[C@H](CO)[C@@H](O)[C@H](O)[C@H]6O)CC[C@]5(C)[C@H]4CC[C@]3(C)[C@H]2C(C)=O)c1 : > 10 µM
COc1ccc(OC)c([C@@H]2C[C@H]3[C@@H]4CC=C5C[C@@H](O[C@H]6O[C@@H](C)[C@@H](O)[C@@H](O)[C@@H]6O)CC[C@]5(C)[C@H]4CC[C@]3(C)[C@H]2[C@H](C)O[C@H]2O[C@@H](C)[C@@H](O)[C@@H](O)[C@@H]2O)c1 : > 10 µM
COc1ccc(OC)c([C@@H]2C[C@H]3[C@@H]4CC=C5C[C@@H](O[C@H]6O[C@H](CO)[C@@H](O[C@H]7O[C@H](CO)[C@@H](O)[C@H](O)[C@H]7O)[C@H](O)[C@H]6O)CC[C@]5(C)[C@H]4CC[C@]3(C)[C@H]2C(C)=O)c1 : > 10 µM
COc1ccc(OC)c([C@@H]2C[C@H]3[C@@H]4CC=C5C[C@@H](O[C@@H]6O[C@H](CO)[C@H](O)[C@H](O)[C@H]6O)CC[C@]5(C)[C@H]4CC[C@]3(C)[C@H]2C(C)=O)c1 : > 10 µM
COc1ccc(OC)c([C@@H]2C[C@H]3[C@@H]4CC=C5C[C@@H](O[C@@H]6O[C@H](CO)[C@@H](O[C@@H]7O[C@H](CO)[C@@H](O)[C@H](O)[C@H]7O)[C@H](O)[C@H]6O)CC[C@]5(C)[C@H]4CC[C@]3(C)[C@H]2C(C)=O)c1 : > 10 µM

# evaluate next
Q) Which IC50 value is on record for COc1ccc(OC)c([C@@H]2C[C@H]3[C@@H]4CC=C5C[C@@H](O[C@H]6O[C@H](CO)[C@@H](O[C@@H]7O[C@H](CO)[C@H](O)[C@H](O)[C@H]7O)[C@H](O)[C@H]6O)CC[C@]5(C)[C@H]4CC[C@]3(C)[C@H]2[C@H](C)O[C@H]2O[C@H](CO)[C@@H](O[C@@H]3O[C@H](CO)[C@H](O)[C@H](O)[C@H]3O)[C@H](O)[C@H]2O)c1 ?
A) > 10 µM
